# Tested on: AsPC-1 (Pancreatic Carcinoma)
# Method: combination Emax (second highest fraction inhibited in the dose matrix, 72 h); higher = more inhibition; extreme values may be limits of the assay
Parameter: combination Emax. Scope: all listed entries.
// return just the number, without any unit appended

Some solved cases for reference:
CCN(CCO)CCCOc1ccc2c(Nc3cc(CC(=O)Nc4cccc(F)c4)[nH]n3)ncnc2c1 [AZD2811] + O=C(c1cc(Cc2n[nH]c(=O)c3ccccc23)ccc1F)N1CCN(C(=O)C2CC2)CC1 [Olaparib] (first compound max 1 µM, 7x7, partner max 10 µM) = 0.18
CC1(C)CCC(CN2CCN(c3ccc(C(=O)NS(=O)(=O)c4ccc(NCC5CCOCC5)c([N+](=O)[O-])c4)c(Oc4cnc5[nH]ccc5c4)c3)CC2)=C(c2ccc(Cl)cc2)C1 [Venetoclax] + C[C@@H]1COCCN1C2=NC(=NC(=C2)C3(CC3)[S@](=N)(=O)C)C4=C5C=CNC5=NC=C4 [AZD6738] (first compound max 1 µM, 7x7, partner max 10 µM) = 0.264
NC1(C(=O)N[C@@H](CCO)c2ccc(Cl)cc2)CCN(c2ncnc3[nH]ccc23)CC1 [Capivasertib] + CCN(CCO)CCCOc1ccc2c(Nc3cc(CC(=O)Nc4cccc(F)c4)[nH]n3)ncnc2c1 [AZD2811] (first compound max 10 µM, 7x7, partner max 1 µM) = 0.233

// assay AsPC-1 (Pancreatic Carcinoma), entry Cc1c2c(nn1C)CSCc1cc(n(C)n1)CSc1cc(c3ccccc3c1)OCCCc1c(C(=O)O)n(C)c3c-2c(Cl)ccc13 [AZD5991] + C=CCn1c(=O)c2cnc(Nc3ccc(N4CCN(C)CC4)cc3)nc2n1-c1cccc(C(C)(C)O)n1 [AZD1775] (first compound max 1 µM, partner max 1 µM) , combination Emax value = 0.369

// assay AsPC-1 (Pancreatic Carcinoma), entry COc1cccc(OCCCN)c1-c1cc(Nc2cnc(C#N)cn2)n[nH]1 [Prexasertib] + C=CCn1c(=O)c2cnc(Nc3ccc(N4CCN(C)CC4)cc3)nc2n1-c1cccc(C(C)(C)O)n1 [AZD1775] (first compound max 1 µM, partner max 1 µM) , combination Emax value = 0.41

// assay AsPC-1 (Pancreatic Carcinoma), entry COc1cccc(OCCCN)c1-c1cc(Nc2cnc(C#N)cn2)n[nH]1 [Prexasertib] + CN(C)CCCOc1ccc(-c2ccc3ncc4c(c3c2)n(C2CCOCC2)c(=O)n4C)cn1 [AZD0156] (first compound max 1 µM, 7x7, partner max 1 µM) , combination Emax value = 0.444

// assay AsPC-1 (Pancreatic Carcinoma), entry Cc1c2c(nn1C)CSCc1cc(n(C)n1)CSc1cc(c3ccccc3c1)OCCCc1c(C(=O)O)n(C)c3c-2c(Cl)ccc13 [AZD5991] + C[C@@H](Nc1cc(F)cc(F)c1)c1cc(C(=O)N(C)C)cc2c(=O)cc(N3CCOCC3)oc12 [AZD8186] (first compound max 1 µM, 7x7, partner max 3 µM) , combination Emax value = 0.235
